Data origin: ChEMBL document CHEMBL4311982

Below, each of the compounds is paired with its reported pKi value.
# subjectOfTest: Coagulation factor X (Homo sapiens, UniProt P00742)
# Sequence (P00742 41-179 limits assumed): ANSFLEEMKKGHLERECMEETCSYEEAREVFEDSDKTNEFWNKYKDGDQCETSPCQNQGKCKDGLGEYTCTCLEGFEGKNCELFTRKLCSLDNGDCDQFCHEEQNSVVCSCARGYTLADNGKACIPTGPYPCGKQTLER
# Sequence (P00742 235-488 limits assumed): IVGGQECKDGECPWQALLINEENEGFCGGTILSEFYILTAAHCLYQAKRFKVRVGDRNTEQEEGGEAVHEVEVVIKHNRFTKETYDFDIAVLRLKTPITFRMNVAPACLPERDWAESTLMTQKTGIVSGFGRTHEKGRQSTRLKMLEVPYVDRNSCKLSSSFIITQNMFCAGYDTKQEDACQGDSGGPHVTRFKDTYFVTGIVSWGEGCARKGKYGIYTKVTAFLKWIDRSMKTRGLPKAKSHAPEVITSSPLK
# testSummary: Inhibition of human activated Factor X using S-2765 as substrate incubated for 15 mins followed by substrate addition and measured after 1 hr by chromogenic assay
Value format note: pKi is -log10 of concentration (mol/L); just state the number.

# count of solved cases: 5
[[record]]
mol = "C[C@@]12CC[C@@H]3[C@@](CC[C@H]4[C@@]3(C)CCC[C@@]4(C)C(=O)O)(C/C1=N/O)C2"
measurement = 5.10

[[record]]
mol = "CCOC(=O)[C@]1(C)CCC[C@@]2(C)[C@@H]3CC[C@@]4(C)C[C@]3(CC[C@@H]21)C/C4=N\\OCC1(C)COC1"
measurement = 7.55

[[record]]
mol = "CCOC(=O)[C@]1(C)CCC[C@@]2(C)[C@@H]3CC[C@@]4(C)C[C@]3(CC[C@@H]21)C/C4=N\\OC/C=C/c1ccc2nccnc2c1"
measurement = 5.44

[[record]]
mol = "CCOC(=O)[C@]1(C)CCC[C@@]2(C)[C@@H]3CC[C@@]4(C)C[C@]3(CC[C@@H]21)C/C4=N/O"
measurement = 5.58

[[record]]
mol = "CCOC(=O)[C@]1(C)CCC[C@@]2(C)[C@@H]3CC[C@@]4(C)C[C@]3(CC[C@@H]21)C/C4=N\\OCc1ccsc1"
measurement = 7.82


Provide only the value of recorded pKi for `CCOC(=O)[C@]1(C)CCC[C@@]2(C)[C@@H]3CC[C@@]4(C)C[C@]3(CC[C@@H]21)C/C4=N\OC/C=C/c1cccc2ccccc12`
4.92

Provide only the value of recorded pKi for `CCOC(=O)c1ccc(CO/N=C2\C[C@]34CC[C@H]5[C@@](C)(CCC[C@@]5(C)C(=O)OCC)[C@@H]3CC[C@@]2(C)C4)o1`
5.01
